In this section, each of the sequences is paired with its reported apparent KD of MS2 coat protein.
Test system: MS2 coat protein
Test: apparent KD of MS2 coat protein; designed switch direction (-1 OFF switch, 1 ON switch): -1; higher = weaker reporter binding
Settings: input ligand: none
Please append the unit to your numeric answer.

{"columns": ["Record Sequence", "Measured On", "apparent KD of MS2 coat protein"],
 "data": [
  ["AAGACGCGUGUAAGGAUAUCGAAAGCCCGAGGCGACGAGAAGGUACAUGAGGAUCACCCAUGUGCAGAUCACAA [BmEX4 B.3] (Eterna round: R97, puzzle: Brourd's mod of Exclusion 4)", "MS2 coat protein", "0.0173 µM"]
]}

Here is another sequence to look at.
Documented apparent KD of MS2 coat protein of UCAAACAUCGUUAGGAUAUGCUGGACUAAAUAGUGGCAGAAGGAACAUGAGGAUCACCCAUGUGCCUCGAUUGC [Eternabot (L2) Solution 26] (Eterna round: R97, puzzle: Brourd's mod of Exclusion 4) : 0.0134 µM

====

System: MS2 coat protein
Test: apparent KD of MS2 coat protein; designed switch direction (-1 OFF switch, 1 ON switch): -1; higher = weaker reporter binding
Conditions: input ligand: FMN 200 uM
Measurement Label: apparent KD of MS2 coat protein (nM)
Report the figure in nM without appending any unit label.

Reference set (3 entries):
{"columns": ["Record Sequence", "Measured On", "Data Value"],
 "data": [
  ["GGUCAGAUGGUAGGAUAUCCAUAUCGAGUGACCCUUUUAUAACAUGAGGAUCACCCAUGUCGGUGGGAGAAGGGCCGUACGGCG [salish99_ExNG02_R04_018] (Eterna round: R96, puzzle: Exclusion NG 2)", "MS2 coat protein", 244],
  ["UUUAGUUUAGGAUAUGUAGAUUUUAACAUGAGGAUCACCCAUGUAGAUCCUGAAUUAACUACAGAAGGGAACAUUU [Mod of Brourd 14 - Jieux - Exclusion 5] (Eterna round: R97, puzzle: Exclusion 5)", "MS2 coat protein", 124],
  ["CUAGCGGAUGUAGGAUAUCGGACUGUUUCAGUCUGAGAAGGACAUGAGGAUCACCCAUGUAUAGCUACGUGAGUAGCUCGCUAG [JL ENG1 3.95] (Eterna round: R96, puzzle: Exclusion NG 1)", "MS2 coat protein", 38.1]
]}

apparent KD of MS2 coat protein value, target or system MS2 coat protein, for GUAUACGAUGAGGAUAUAUGAUAUCAAAGCAUCAUAGAAGGCAUCACAUGAGGAUCACCCAUGUGAUCUUCUUG [Mat - Exclusion 6 - JL Mod - D33] (Eterna round: R97, puzzle: Exclusion 6) : 141

apparent KD of MS2 coat protein value, target or system MS2 coat protein, for GCUGGAAAAGGAUAUACAUAACGUGCGUCAGCACGAGACCUACAUGAGGAUCACCCAUGUAGAAGGUUUCCAGC [EX2 #75] (Eterna round: R97, puzzle: Exclusion 2) : 22.8

====

Tested on: MS2 coat protein
Test: apparent KD of MS2 coat protein; designed switch direction (-1 OFF switch, 1 ON switch): 1; higher = weaker reporter binding
Conditions: input ligand: none
Answer Criterion not met if apparent KD of MS2 coat protein is under 100 nM, and Criterion met if it is 100 nM or more.

Below are worked cases with known answers.
{"columns": ["Record Sequence", "Answer Label"],
 "data": [
  ["GAGGGCGAAAGCAACAUGAGGAUCACCCAUGUUGUCGAAAGGCAGGAUAUCCGGCGAAAGCAGAAGGAGAAGGGUCGAAAAGAA [AK SSNG3-V2-40] (Eterna round: R96, puzzle: Same State NG 3)", "Criterion not met"],
  ["AGCUAUUAAUCAGGAUAUGGUGACAUGAGGAUCACCCAUGUAUUGAUGAUUAAAUGUGGUCAAUACCAGAAGGGAUUACUAACA [SameState NG2 #51] (Eterna round: R96, puzzle: Same State NG 2)", "Criterion met"],
  ["AGUCCAGCCUGAGCUGGACAAAAGCAUGUACAUGAGGAUCACCCAUGUUCAUGUACAAGCUUUUUGCUCGUCUUGCC [salish99_208a_r3_107x] (Eterna round: R96, puzzle: Sensor for hsa-mir-208a)", "Criterion met"],
  ["GGAGCCGGCCUAGGAUAUUUCAUAAAUAAACAUGAGGAUCACCCAUGUAGGCCAGAAGGCCUUGGGAAGAAGGAGGUCGGCUCC [Loop Effect - U27] (Eterna round: R96, puzzle: Same State NG 2)", "Criterion not met"],
  ["CUGAGCAAGCAAGGAUAUCACGUCGAUUAGACGUGAGAAGGUGCUCCUUACAUGAGGAUCACCCAUGUAUAACAUGAAGCUCAG [SSNG1/10-A2] (Eterna round: R96, puzzle: Same State NG 1)", "Criterion met"],
  ["AGCUAUUACGAAGGAUAUAGGGACAUGAGGAUCACCCAUGUGUACAUGAGUAAAUGUGAUCACGUCUAGAAGGUUGUACUAACA [SameState NG2 #36] (Eterna round: R96, puzzle: Same State NG 2)", "Criterion met"],
  ["GCUCGAUGAGCGAUUUACAUGAGGAUCACCCAUGUACGUGGGCAGGAUAUUUACGUGCGGUGUGUAGAGAAGGGCCCAUCGAGC [SameState NG3 #71] (Eterna round: R96, puzzle: Same State NG 3)", "Criterion met"]
]}

Proceed to the following item.
# check: apparent KD of MS2 coat protein of UUGAAGAAUUAAGGAUAUUGAUUACAUAUGUUAAACAUGAGGAUCACCCAUGUGGGUUGCGGUAUCGAGAAGGUAAAUUACUAG [Mat - same State NG 2 - JL mod - D76] (Eterna round: R96, puzzle: Same State NG 2) is greater than or equal to 100 nM Criterion not met

====

Tested on: MS2 coat protein
Test: apparent KD of MS2 coat protein; designed switch direction (-1 OFF switch, 1 ON switch): 1; higher = weaker reporter binding
Details: Eterna round: R95; input ligand: none
Measurement Label: apparent KD of MS2 coat protein (nM)
Report the figure in nM without appending any unit label.

{"columns": ["Record Sequence", "apparent KD of MS2 coat protein [nM]"],
 "data": [
  ["GUACUACAUGAGGAUCACCCAUGUACGCCAGUACGAGGAUAUGCAUGGGCGCUAGCUGGUGCAGAAGGCGUAGUGC [Pin2Pin #6] (puzzle: Same State 1)", 45.5],
  ["GCUCUACAUGAGGAUCACCCAUGUCCGAACGCGCGAGGAUAUGCAUGGGCGAAAGCUGGUGCAGAAGGCGUGGGAC [2theCorner] (puzzle: Same State 1)", 358]
]}

Documented apparent KD of MS2 coat protein of UUAAAACAUGAGGAUCACCCAUGUAAUAUAAUGGGAGGAUAUCUGAUUUAAUUAAAUUUAAGAGAAGGCCUAAAUU [Mat - Same State 1 - Mod of Eli - D55] (puzzle: Same State 1) : 169

Documented apparent KD of MS2 coat protein of GACAAUCUAUCUGAGGAUAUCAUGAGAAUAACAUGAGGAUCACCCAUGUGCAGGAAAACUGCAUAUGAGAAGGCAGAUAGAUUGA [Mat - Same State 2 - Mod - D15] (puzzle: Same State 2) : 603

====

System: MS2 coat protein
Assay: apparent KD of MS2 coat protein, switch ON state; designed switch direction (-1 OFF switch, 1 ON switch): -1; higher = weaker reporter binding
Settings: FMN input: 0 or 200 uM; Eterna round: R93 (includes R88 designs)
In this section, each of the sequences is paired with its reported apparent KD of MS2 coat protein.
Report the figure in nM without appending any unit label.

Reference set (3 entries):
{"columns": ["Record Sequence", "Data Value"],
 "data": [
  ["AAAAUGUCAGGAUAUGUAGCAAAAGGUGAUCAAAAAAAGCUACAGAAGGGACAUGAGGAUCACCCAUGUAAAAA [Ex4: 935]", 1020],
  ["AACUGACAUGAGGAUCACCCAUGUCAGGAUAUGACUUCGAAAAAUAAAAUAAACGAUGUCAGAAGGGACAUGGG [Design 68: Sub-opt O]", 21.2],
  ["AGUUGGCGAGGAUAUACAUGAGGAUCACCCAUGUAAAAUAAAUAAAAAAUAAGGGAAAGUAGAAGGCGCUGACA [73%, Moding Norbert Elias, 14]", 46.5]
]}

Here is another sequence to look at.
Documented apparent KD of MS2 coat protein of AAAAAACAUGAGGAUCACCCAUGUGAGGAUAUCGAGAAGAAGAAGAAGAAGAAGAGAACGAGAAGGCACAAAAA [Exclusion 1 - G's] : 25.8

====

In this section, each of the sequences is paired with its reported apparent KD of K4 kissing-loop reporter.
Test system: K4 kissing-loop RNA reporter;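 note: bound reporter read as fluorescence of individual clusters on recovered sequencing chips by microscopy, with normalized cluster intensities fitted with a binding model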
Assay: apparent KD of K4 kissing-loop reporter; higher = weaker reporter binding
Conditions: Eterna round: R107; input ligand: arginine 13.2 mM
Report the figure in nM without appending any unit label.

Reference set (8 entries):
{"columns": ["Record Sequence", "Uom", "apparent KD of K4 kissing-loop reporter"],
 "data": [
  ["CCCUAAAUAUGCAGUGAUGUUGCAACUGAUACCAGUAUCGAAAGAUACCCUUGGCAGCGGAAAACCGCUACGUAAUUUAAAAGGG [Ex Theophylline A K4 19]", "nM", 327],
  ["CCGCUACCCUCAGGAUAUUAAUAUGGAGUGAUGUUCUAUGUCCGAUGGCGGAAACGCCAUCGGGAAUAAGAAGGGAGGGUAGCGG", "nM", 261],
  ["UGUCAUUGGUCUGAUACCAGCUUGAUCGGAAACGAUCUGCUGGAGUGAUGUUCCAAGUAAAGCCCUUGGCAGCAGACCGAUGACU [TheoBS 8 #SwitchBubble #StaticStem]", "nM", 59.8],
  ["AAAUUUGCUCAUGAUACCAGCCAGUGAUGUUGGUUGGUCCACCGUGUCCGAACAUUAAGCGGCCCUUGGCAGCAUGAUGCGCGUA [Ininveaen]", "nM", 105],
  ["GUAUGUGGAAACACGUACUUAUAUCCUAGGCAGGAUAUGCGGAAACGCAGAAGGGCCACCGGCGAGUUUAUCCAGUGAUGUUGGA [Ex FMN A 8]", "nM", 253],
  ["UUUCCAGAUAAGUGGGAACACUCCAUAACAGAGGAUAUCAGAGCGCUGAGAAGGCUGUUUAUCAGUGAUGUUGAUAGUGUGGAGU [FMN A SS t2a]", "nM", 660],
  ["CGCCAGGGUGAAGGAUAUCCGUCUGAUUGAGCGCAGUGAUGUUGCGCGAUUCGUUCAUCGCUCGGAGGAGAAGGUCAGAUAACUC [theeternabot_sameState_KL_FMN_B_3]", "nM", 121],
  ["GAGGCCAGACUGAGUGAUGUUUAGUAUGAUACCAGUAUCGAAGGAUACCCUUGGCAGCAUGCCACGGCCUCGGCGGGAAACCGCC", "nM", 663]
]}

Documented apparent KD of K4 kissing-loop reporter of UUUCCAGAUAAGUGGGAACGCUCCAUAACAGAGGAUAUCAGAGCGCUGAGAAGGCUGUUUUACAGUGAUGUUGUAAGUGUGGAGC [#10 K4 FMN A Same State] : 272

Documented apparent KD of K4 kissing-loop reporter of CCUUUCUGUUACGAUACCAGUCUAAUAUAUUUGAUCAAUACCCUCGCCGAGUGAUGUUCGGACCCUUGGCAGCGUCUGGGACAGG [aazwmullin] : 438

Documented apparent KD of K4 kissing-loop reporter of AAGGUCACUACUACAGUGAUGUUGUGGGAGCAGGAUAUGCAGAAAUGCAGAAGGGCUCGCUCCAAGUGACCGAAUGAAACAUUCA [Omei KL FMN A SS A v1] : 876
